Give Lethal dose for every item shown.
# Test system: male NMRI mice
# EXPERIMENTAL PROTOCOL: Toxicity, Irwin's test
# Type: in vivo
# STATED CONDITIONS: mice, i.p.; death of two animals out of three within 48 hours
Numeric answer only, unit mg/kg assumed.

Look up Lethal dose: CCCc1nc(N2CCOCC2)nc(N2CCCC2CO)n1 (stereo not drawn)
1031

Look up Lethal dose: `CCCc1nc(N)nc(N2CCOCC2)n1`
779

Look up Lethal dose: `CCCc1nc(NCCCO)nc(N2CCOCC2)n1`
844

Look up Lethal dose: `CCCc1nc(NC(=O)C(C)C)nc(N2CCOCC2)n1`
880

Look up Lethal dose: CCCc1nc(NCC(O)CC)nc(N2CCOCC2)n1 (stereo not drawn)
886

Look up Lethal dose: `CCCc1nc(NO)nc(N2CCOCC2)n1`
718
